assayed.target: GI.1c/RHDV FRG 3CLpro (Rabbit hemorrhagic disease virus, UniProt P27410)
Sequence (P27410 1109-1251 limits assumed): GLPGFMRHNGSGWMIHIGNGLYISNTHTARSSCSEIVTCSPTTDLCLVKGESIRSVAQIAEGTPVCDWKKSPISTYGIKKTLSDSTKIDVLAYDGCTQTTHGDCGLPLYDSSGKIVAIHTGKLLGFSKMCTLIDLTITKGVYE
test.method.notes: FRET assay, 3CLpro of GI.1c/RHDV FRG strain
conditions: 30 min preincubation with 3CLpro, 30 min with substrate, mean ± SEM, at least three experiments, read-out: IC50 GI.Ic/RHDV FRG
pIC50: −log10 of the molar value.
assay.readout: pIC50

| compound | experimental.result |
| --- | --- |
| CC(C)CC(NC(=O)C(Cc1cccc2ccccc12)NC(=O)OCc1ccccc1)C(=O)NC(C=O)CC1CCNC1=O (centres unmarked) [NPI52] | 6.51 |
| CC(C)C[C@H](NC(=O)OCc1ccccc1)C(=O)N[C@H](C[C@@H]1CCNC1=O)C(O)S(=O)(=O)O (some centres unmarked) [GC376] | 5.92 |
| O=C(N[C@@H](CC1CCCCC1)C(=O)N[C@H](C[C@@H]1CCNC1=O)C(=O)C(=O)NC1CC1)OCc1cccc(Cl)c1 [GC591] | 6.23 |
| O=C[C@@H](C[C@@H]1CCNC1=O)NC(=O)[C@H](CC1CCCCC1)NC(=O)OCc1ccccc1 [GC543] | 7.05 |
| O=C[C@@H](C[C@@H]1CCNC1=O)NC(=O)[C@H](CC1CCCCC1)NC(=O)OCc1cccc(Cl)c1 [GC583] | 7.10 |
